Where do the numbers come from? From PubChem BioAssay AID651951.

System Tested: Trace amine-associated receptor 1 (Homo sapiens) (UniProt Q96RJ0)
Sequence (Q96RJ0 whole entry, looked up): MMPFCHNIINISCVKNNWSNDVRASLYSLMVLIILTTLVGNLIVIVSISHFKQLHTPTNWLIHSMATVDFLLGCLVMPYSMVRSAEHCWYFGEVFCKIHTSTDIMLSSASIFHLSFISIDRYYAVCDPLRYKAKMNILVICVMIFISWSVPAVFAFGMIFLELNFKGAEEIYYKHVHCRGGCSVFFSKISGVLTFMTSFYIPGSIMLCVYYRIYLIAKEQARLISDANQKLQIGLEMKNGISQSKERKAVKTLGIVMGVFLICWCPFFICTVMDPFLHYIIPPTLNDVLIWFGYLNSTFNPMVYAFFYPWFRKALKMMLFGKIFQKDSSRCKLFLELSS
Run Description: TAAR1 desensitization by agonist hits, confirmation, counter-screen for TAAR1 agonist project, cell-based, fluorescence, tachyphylaxis (AID 651951);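 also: beta-PEA stimulus applied at its EC80; loss of beta-PEA calcium signal after compound pretreatment read as receptor desensitization; 0% = DMSO with beta-PEA at EC80 and 100% = DMSO alone without agonist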
Stated Conditions: CHO RD-HGA16 hTAAR1, Fluo-8 calcium, beta-PEA response inhibition; at 3 µM
The whole screen tested about 2,400 compounds, of which about 1,100 (46%) were called active.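 The calls were made as follows: active = inhibition above the run cutoff, the mean inhibition of all test compounds plus 3 SD (cut at about 49% in these data); inactive = the rest.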 The set was probably picked from earlier hits. The list is a sample of the results.
Parameter call: string, one of class 1 (active), class 0 (inactive)

Problem: Could you check what this test reported for Cc1cc(C)c2cc(C#N)c(N3CCNCC3)nc2c1 ?
Result: class 1

Problem: Could you check what this test reported for Nc1cc(OC(=O)c2ccccc2Br)nn1S(=O)(=O)c1ccccc1 ?
Result: class 0

Problem: Could you check what this test reported for Nc1c(C(=O)c2cccs2)sc2nsc(SCCN3CCCCC3)c12 ?
Result: class 1

Problem: Could you check what this test reported for Cc1ccccc1-c1nc(CS(=O)(=O)CC(=O)N2CCc3ccccc3C2)c(C)o1 ?
Result: class 0

Problem: Could you check what this test reported for Nc1nonc1-n1nnc(C(=O)N/N=C/c2ccc(Cl)cc2)c1-c1ccc2c(c1)OCO2 ?
Result: class 0

Problem: Could you check what this test reported for CCCc1cc(C(=O)Nc2ccc(C(=O)OC)cc2)cs1 ?
Result: class 0

Problem: Could you check what this test reported for O=C(NCCc1ccccc1)/C(=C\c1ccc([N+](=O)[O-])cc1)NC(=O)c1ccccc1 ?
Result: class 0

Problem: Could you check what this test reported for COc1ccc(C(=O)NC(=S)NNC(=O)c2c(-c3ccccc3)noc2C)cc1 ?
Result: class 0

Problem: Could you check what this test reported for Oc1ccc2ccc3cccc[n+]3c2c1 ?
Result: class 0

Problem: Could you check what this test reported for COc1cccc(-c2cnc(OC(C)(C)C)nc2OC(C)(C)C)c1 ?
Result: class 0

Problem: Could you check what this test reported for CCCCc1c(-c2ccc(Br)cc2)ncn1CCc1ccccc1OC ?
Result: class 1

Problem: Could you check what this test reported for CCN(CC)c1ccc2oc(=O)c(C)nc2c1 ?
Result: class 0

Problem: Could you check what this test reported for Cc1cc(=O)oc2c(C)c(OCC(=O)NCCN3CCOCC3)ccc12 ?
Result: class 0

Problem: Could you check what this test reported for c1ccc(-c2csc(N3CCc4ccccc4C3)n2)cc1 ?
Result: class 0

Problem: Could you check what this test reported for CCCCc1c(-c2ccc(Cl)cc2)ncn1CCc1ccccc1OC ?
Result: class 1

Problem: Could you check what this test reported for CCC(c1nnnn1Cc1ccco1)N(CCc1ccccc1)Cc1cc2cccc(C)c2[nH]c1=O (stereo not given) ?
Result: class 0

Problem: Could you check what this test reported for CCCn1c(O)c(CN2CCCC(C)C2)c(C)c(C#N)c1=O (stereo not given) ?
Result: class 1

Problem: Could you check what this test reported for N#Cc1ccc(OCCCN2CCC(C(O)(c3ccccc3)c3ccccc3)CC2)c(F)c1 ?
Result: class 0

Problem: Could you check what this test reported for CC(Oc1ccc(Cl)cc1)C(=O)OCC(=O)Nc1ncc(Cl)cc1Cl (stereo not given) ?
Result: class 0

Problem: Could you check what this test reported for O=C(NCCc1ccccc1)C(=O)NCC1OCCN1S(=O)(=O)c1cccs1 (stereo not given) ?
Result: class 0

Problem: Could you check what this test reported for CCCCCc1c(-c2ccc(OC)c(OC)c2)ncn1CCc1ccccc1OC ?
Result: class 1

Problem: Could you check what this test reported for COCCCn1c(Cc2csc(Nc3cccc(Cl)c3)n2)nnc1SCC(=O)OC1CCCCC1 ?
Result: class 0

Problem: Could you check what this test reported for Cc1onc(-c2ccccc2)c1C(=O)NNC(=S)NC(=O)c1ccc(F)cc1 ?
Result: class 1

Problem: Could you check what this test reported for OC(CNCCc1ccc(Cl)cc1Cl)COc1ccccc1 (stereo not given) ?
Result: class 1

Problem: Could you check what this test reported for CC(Oc1ccc2ccccc2c1)C(=O)NNC(=S)NC(=O)c1ccco1 (stereo not given) ?
Result: class 1

Problem: Could you check what this test reported for O=C(CCCN=C1NS(=O)(=O)c2ccccc21)OCC(=O)c1ccc(F)c(F)c1 ?
Result: class 0

Problem: Could you check what this test reported for CCCCCC(=O)NC(=S)NNC(=O)c1ccc([N+](=O)[O-])cc1 ?
Result: class 1

Problem: Could you check what this test reported for c1ccc(C2CNCc3c2ccc2ccccc32)cc1 (stereo not given) ?
Result: class 1

Problem: Could you check what this test reported for Nc1cccc2c1C(=O)N(Cc1nnc(-c3ccccc3Br)o1)C2=O ?
Result: class 0

Problem: Could you check what this test reported for Cc1ccn2c(=O)c(C(=O)NCCC3=CCCCC3)c(O)nc2c1 ?
Result: class 1

Problem: Could you check what this test reported for O=C1CCCC(O)=C1C=NCCc1ccccc1 ?
Result: class 0

Problem: Could you check what this test reported for COc1ccc(C(N)c2csc(NC(=O)Nc3cccc(C(F)(F)F)c3)n2)cc1 (stereo not given) ?
Result: class 0

Problem: Could you check what this test reported for CCc1c(-c2ccccc2OC)ncn1CCc1ccccc1OC ?
Result: class 0

Problem: Could you check what this test reported for Cc1ccc(Cl)cc1N1CCN(C(=O)c2cccc3c(=O)c(C)c(-c4ccccc4)oc23)CC1 ?
Result: class 1

Problem: Could you check what this test reported for CCCCC(=O)NNC(=S)NC(=O)C(c1ccccc1)c1ccccc1 ?
Result: class 1

Problem: Could you check what this test reported for COc1ccc2cc(-c3[nH]ncc3CNCCn3nc(C)cc3C)ccc2c1 ?
Result: class 0

Problem: Could you check what this test reported for COc1ccc(C(=O)NC(=S)NNC(=O)CCc2ccccc2)cc1 ?
Result: class 1

Problem: Could you check what this test reported for S=C(NCCc1ccccc1)N1CCn2cccc2C1c1ccncc1 (stereo not given) ?
Result: class 1

Problem: Could you check what this test reported for O=C(N[C@H](C(=O)N1CCC[C@H]1C(=O)NCCc1ccccc1Cl)c1ccccc1)c1ccccc1 ?
Result: class 1

Problem: Could you check what this test reported for NC(=O)C1=C[C@H](c2csc3ccccc23)C[C@H](OCc2ccc(CO)cc2)O1 ?
Result: class 1

Problem: Could you check what this test reported for CCOC(=O)Cc1csc(NC(=O)Nc2ccccc2)n1 ?
Result: class 0

Problem: Could you check what this test reported for CCCc1ccc(OCC(=O)NNC(=S)NC(=O)c2ccco2)cc1 ?
Result: class 1

Problem: Could you check what this test reported for C#CCOc1ccc(/C=C2/C(=O)NN(c3ccccc3)C2=O)cc1OC ?
Result: class 0

Problem: Could you check what this test reported for CSc1nc(N)c(C#N)c(-c2ccccc2Cl)c1C#N ?
Result: class 0

Problem: Could you check what this test reported for CCc1ccccc1S(=O)(=O)Cc1ccc(C(=O)NCCc2ccccc2)o1 ?
Result: class 1
